System: SF-295 CNS
Assay: NCI-60 one-dose screen, 48 h (100 = growth as untreated, 0 = no growth, -100 = all killed)
Details: 10 µM
Compounds without any hit were thinned out: in the full panel of roughly 83,000, 20% have a hit.

molecule	growth (%)
COc1ccc2cc(-c3nc4ccccc4s3)c(Cl)nc2c1OC	108
O=C1OC(C(Cl)(Cl)Cl)OC1C(Cl)(Cl)Cl (centres undefined)	98
CC(=O)OC1CC2C(C)(C)CCC[C@]2(C)C2=C1C(O)=C(C(C)C)C(=O)C2=O (some centres undefined)	-53.1
Cc1c2cnccc2c(C)c2c1oc1ccccc12	74.9
N#CC1=CC2CN(Cc3ccccc3)C1C1C(=O)N(c3ccccc3)C(=O)C21 (centres undefined)	98.7
C=CCn1c(SCC(=O)Nc2ccc(C(=O)/C=C/c3ccc(OC)cc3)cc2)nnc1-c1ccc(OC)c(OC)c1	93.5
O=c1c(Br)ccc(Br)cc1Br	46.7
Cc1cc(CC(C)CC(C)(C)C)n(O)c(=O)c1 (centres undefined) (tested in a mixture with another compound)	6.87
COc1cc(C2C(C#N)=C(N)Oc3cc(O)ccc32)cc(OC)c1OC (centres undefined)	0.55
CC(=O)C1N=NCC1c1ccccc1 (centres undefined)	95.4
Cc1c2c(nn1C(=O)c1nn(-c3ccc(Cl)cc3)cc1O)-c1ccccc1CC2	-15.1
CC(CN(C)C)Oc1ccccc1NC1=C(Cl)C(=O)C(Nc2ccccc2OC(C)CN(C)C)=C(Cl)C1=O (centres undefined)	30.6
CC(C)(C)OC(=O)N1CCc2c(sc3ncnc(N/N=C/c4ccc(Br)cc4)c23)C1	49
COc1cc2c3c(n(C4CCNCC4)c(=O)c2cc1OC)-c1cc2c(cc1C3=O)OCO2	-70.7
O=[N+]([O-])c1cc(Cl)cc(Cl)c1O	97.3
CC(=O)Nc1ccc(CC[C@H]2CCC/C=C/[C@@H]3C[C@H](O)C[C@H]3[C@H](O)/C=C/C(=O)O2)cc1	16.9
Clc1ccc2c(c1)C(N1CCNCC1)=Nc1ccccc1O2	58
CC(C)(C)OC(=O)N1CCc2c(sc3ncnc(N/N=C/c4cccc5ccccc45)c23)C1	1.31
CCCCN(CCCC)C(=O)[C@H](CC)[C@@H]1CC[C@@H](C)[C@@H]([C@H](C)[C@@H](O)[C@@H](C)C(=O)[C@H](CC)C2O[C@]3(C=CC(=O)[C@]4(CC[C@@](C)([C@H]5CC[C@](O)(CC)[C@H](C)O5)O4)O3)[C@H](C)C[C@@H]2C)O1 (some centres undefined)	2.72
